The following sequences are listed with their measured IC50 values.
Molecular target: HLA-B*4002 (Homo sapiens, UniProt P01889, A65T/A93T/A95T/D138N/D201E/D98Y/E176V/E204Q/E69K/K202T/N87E/Q56L/Q94N/R180L/S48T/Y33H/Y91S)
Assay: biochemical
Type: binding
Details: read-out: B*4002

Primary Sequence | Relation Sign | IC50 [nM]
RERPDNYV | = | 62
ATNLWVTVY | > | 155000

* * *

Target: HLA-DR DRB5*0101 (DR51) (Homo sapiens, UniProt P01903+Q30154)
Assay: biochemical
Format: binding
Settings: DRB5 *0101
pIC50: −log10 of the molar value. No end group written: not given here.
The following sequences are listed with their measured pIC50 values.

Primary Sequence | Relation Sign | pIC50
DFEVFFQRLGIASGR | = | 5.45
VILLGRHSLFHPEDT | ≤ | 4.00
SNLELLRICLLLIQS | < | 4.93
EERVKKPLSEITIRC | = | 5.10
FIHFFTWGTMFVPKY | = | 5.02
YLVTGERGFFYTPKT | < | 4.55
YEEYVRFDSDVGE | ≤ | 3.70
PATYGIIVPVLTSLF | = | 7.28
GQRVPVSHSFPHPLY | < | 3.70
KSRLQGGVLVNEILN | < | 4.00
RSSNTQTQKLLWQLN | = | 5.07
SDSNIYDLLKDLEEG | < | 5.02
ICLLLIQSWLEPVQF | < | 5.02
CKFVVQLDIQSTKED [CKFVVQLDIQSTKED] | < | 4.50
DKAVSGLRSLTTLLR | = | 6.98
REVYKFLFTDLRIVY | = | 6.81
FTRGKRMSSLHLKRY | = | 7.08
AYVLLSEKKISSIQS | = | 5.35
AKTFLRTLVRGVPEY | = | 5.46
QWVLTAAHCLKKNSQ | = | 6.42
VEALYLVTGERGFFY | = | 7.11
LRTIQQLLMGTVNIV | = | 4.49
APPRLITDSRVLERY | = | 6.16
RQEILDLWVYHTQGF | < | 4.69
TEVLDFAFTDLTIVY | < | 4.21
FVNQHLCGSHLVEAL [FVNQHLCGSHLVEAL] | = | 4.33
RTGQIFKQTYSKFDT | = | 7.19
SWLEPVQFLRSVFAN | = | 5.32
DFAFADLTVVYREGN | = | 4.40
TSITSLYQLENYTG | = | 4.79
LRTLQQMLLGTLQVV | < | 4.33
YGAVVNLRKTVVNFP | = | 7.44
LRMMNDQLMFLERAF | = | 6.12
PRSLQCVSLHLLSND | = | 4.33
MSYNLLGFLQRSSNT | = | 8.05
LQDVVLELTPQTEID | < | 4.50
AHAAHAAHAAHAAHAA | ≤ | 3.70

* * *

Molecular target: HLA-DQ DQA1*0501/B*0201 (DQ2) (Homo sapiens, UniProt P01909+P01920, A45G/A70V/D89A/E106A/E77G/E98D/H199R/L107V/N214S/P84L/P87L/T103K/T109R/T172A/T60S/V78E/V99I/Y58L/Y62S/Y69I/Y79F)
Experiment: biochemical
pIC50: −log10 of the molar value. No end group written: not given here.
Classify by measured pIC50: MET if it is equal to or exceeds 6, NOT MET if it is smaller.

Primary Sequence | Qualitative Label
GLALLSEAVLRGQAL [GLALLSEAVLRGQAL] | NOT MET
IDVWLGGLAENFLPY | MET
WKRMEVGQQAVEVWQ | MET
IDVWLGGLAKNFLPY | NOT MET
LQLHVDKAVSGLRSL | NOT MET
QHLCGSHLVEALYLV | MET
ISLLLIQSWLEPVQF | NOT MET

Data origin, for the record: patent US20060079453A1
